Data origin: patent US20060079453A1

Overview of reported IC50 across a group of substances:
- Target System: HLA-DR DRB1*1302 (DR13) (Homo sapiens, UniProt P01903+P01911, A100E/A169T/K41T/L162R/M171V/P40S/Q125H/Q178H/Q39Y/Q99D/R42S/S66N/T262R/V115G/W38E/Y61H)
- Sequence (P01903 26-254 limits assumed, other chains not shown): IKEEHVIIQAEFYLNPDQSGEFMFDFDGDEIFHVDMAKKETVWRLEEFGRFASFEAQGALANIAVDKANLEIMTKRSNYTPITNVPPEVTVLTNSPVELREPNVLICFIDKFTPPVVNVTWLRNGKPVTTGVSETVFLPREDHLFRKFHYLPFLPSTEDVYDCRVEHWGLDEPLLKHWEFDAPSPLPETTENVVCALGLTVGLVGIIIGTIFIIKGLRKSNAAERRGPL
- Assay Comment: biochemical
- Assay type: binding
- Run Parameters: DRBI *1302
No end group written: not given here.

{"columns": ["Substance", "IC50"],
 "data": [
  ["SAAPLRTITADTFRK [SAAPLRT1TADTFRK]", "0.809 µM"],
  ["Ac-NPTKHKWEAAHVAEQLAA", "> 10 µM"],
  ["Ac-NPDAENWNSQFEILEDAA", "> 10 µM"],
  ["QDYVLDLQPEATDLH", "> 11.5 µM"],
  ["KLSQELHKLQTYPRT", "> 12.6 µM"],
  ["GAPLGGAARALAHGV", "8.74 µM"],
  ["SFLQNPQTSLTFSES", "0.121 µM"],
  ["DKAVSGLRSLTTLLR", "0.187 µM"]
]}
